Exercise: state measured NFκB luc, 14.64 ng/ml, w/o x linker for each of the binders provided.
MEASUREMENT_TARGET: human LTBR on cells (human, UniProt P36941 31-435)
ASSAY_DETAILS: cell-based or functional assay
Give bare numbers, in RLU.

A selection of reference data follows.
{"columns": ["BINDER", "UNIT_STRING", "NFκB luc, 14.64 ng/ml, w/o x linker"],
 "data": [
  ["P1AE9452 (antibody, human IgG1, kappa, L234A L235A, V domains shown, human IgG1 PG LALA; from transgenic rabbit immunization; also called LTBR (9452)) VH: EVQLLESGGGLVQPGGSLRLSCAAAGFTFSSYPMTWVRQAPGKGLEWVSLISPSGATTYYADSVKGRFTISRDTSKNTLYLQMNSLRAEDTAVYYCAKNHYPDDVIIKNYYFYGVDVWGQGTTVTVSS VL: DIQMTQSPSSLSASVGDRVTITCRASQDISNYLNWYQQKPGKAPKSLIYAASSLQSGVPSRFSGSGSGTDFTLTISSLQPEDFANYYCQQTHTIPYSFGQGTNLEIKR", "RLU", 10200],
  ["P1AE9459 (antibody, human IgG1, kappa, L234A L235A, V domains shown, human IgG1 PG LALA; from transgenic rabbit immunization) VH: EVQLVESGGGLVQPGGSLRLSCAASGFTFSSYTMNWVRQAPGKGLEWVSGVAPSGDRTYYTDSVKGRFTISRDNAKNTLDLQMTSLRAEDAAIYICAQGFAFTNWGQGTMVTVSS VL: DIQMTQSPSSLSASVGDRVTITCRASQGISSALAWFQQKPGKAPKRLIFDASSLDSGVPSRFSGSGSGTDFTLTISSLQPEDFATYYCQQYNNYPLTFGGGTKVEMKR", "RLU", 25900],
  ["P1AE9457 (antibody, human IgG1, kappa, L234A L235A, V domains shown, human IgG1 PG LALA; from transgenic rabbit immunization; also called LTBR (9457)) VH: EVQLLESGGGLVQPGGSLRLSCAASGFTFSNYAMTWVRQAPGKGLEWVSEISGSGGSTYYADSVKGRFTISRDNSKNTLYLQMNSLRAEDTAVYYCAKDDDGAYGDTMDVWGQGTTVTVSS VL: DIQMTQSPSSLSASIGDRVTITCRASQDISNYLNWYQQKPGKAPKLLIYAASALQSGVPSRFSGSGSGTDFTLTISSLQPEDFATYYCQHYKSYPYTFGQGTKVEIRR", "RLU", 13200],
  ["P1AE1873 (CBE11) (antibody, human IgG1, kappa, L234A L235A, V domains shown) VH: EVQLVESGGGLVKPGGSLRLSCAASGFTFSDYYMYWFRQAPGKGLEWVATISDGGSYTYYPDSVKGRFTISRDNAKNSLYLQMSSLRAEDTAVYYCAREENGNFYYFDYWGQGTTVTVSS VL: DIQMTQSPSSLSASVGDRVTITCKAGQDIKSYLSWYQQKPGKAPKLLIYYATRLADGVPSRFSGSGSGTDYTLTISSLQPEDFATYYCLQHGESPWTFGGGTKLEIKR", "RLU", 26600]
]}

// switching to the query binder
q: Retrieve NFκB luc, 14.64 ng/ml, w/o x linker measured for P1AE9450 (antibody, human IgG1, kappa, L234A L235A, V domains shown, human IgG1 PG LALA; from transgenic rabbit immunization; also called LTBR (9450)) VH: EVQLLESGGGLVQPGGSLRLSCAASGFTVSSYVMKWFRQAPGKGLEWVSSISGSGGRPFYADSVKGRFTISRDNSKNALYLQMNSLRAEDTAVYYCANDMDVWGQGTTVTVSS VL: DIQMTQSPSSLSASVGDRVTITCRASQDISSFLKWYQQKPGKAPTLLIYAASALQSGVPSRFSGSGSGTDFTLTISSLQPEDFATYYCQQYNTYPLTFGGGTKVDIKR and print it.
a: 14700
